OD450 nm by entry:
# systemUnderTest: T1, polypeptide GC3pep (human)
# T1 construct: also called membrane proximal polypeptide GC3pep
# T1 peptide: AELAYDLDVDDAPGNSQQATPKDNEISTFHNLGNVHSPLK
# procedureText: ELISA, GC3pep coated, antibody 10 nM;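 further: antibody bound to the coated peptide for 2 h at 37 °C, detected through an HRP-conjugated secondary antibody with TMB colour development stopped by acid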
A complete answer gives the number and then names the unit.

F1.21.8 (antibody, human IgG1, kappa, V domains shown, human-murine chimeric antibody) VH: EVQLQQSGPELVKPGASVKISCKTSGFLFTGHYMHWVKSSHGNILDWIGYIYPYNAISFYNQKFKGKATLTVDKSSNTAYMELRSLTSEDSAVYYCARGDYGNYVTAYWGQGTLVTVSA VL: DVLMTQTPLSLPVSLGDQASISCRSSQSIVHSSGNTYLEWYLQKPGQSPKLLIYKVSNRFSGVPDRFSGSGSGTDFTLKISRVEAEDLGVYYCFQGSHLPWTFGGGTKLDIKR = 0.05 OD450 nm
F1.9.19 (antibody, human IgG1, kappa, V domains shown, human-murine chimeric antibody) VH: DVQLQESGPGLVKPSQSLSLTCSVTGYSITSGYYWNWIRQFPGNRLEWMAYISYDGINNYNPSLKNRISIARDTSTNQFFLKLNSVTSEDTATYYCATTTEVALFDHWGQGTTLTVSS VL: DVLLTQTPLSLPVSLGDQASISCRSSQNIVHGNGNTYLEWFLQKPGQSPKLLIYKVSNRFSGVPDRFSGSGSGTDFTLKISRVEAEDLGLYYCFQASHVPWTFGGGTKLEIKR = 0.06 OD450 nm
F2.39.2 (antibody, human IgG1, kappa, V domains shown, human-murine chimeric antibody) VH: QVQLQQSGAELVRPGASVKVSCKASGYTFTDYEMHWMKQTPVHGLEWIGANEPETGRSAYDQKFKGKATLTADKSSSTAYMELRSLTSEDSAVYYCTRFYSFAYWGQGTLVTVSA VL: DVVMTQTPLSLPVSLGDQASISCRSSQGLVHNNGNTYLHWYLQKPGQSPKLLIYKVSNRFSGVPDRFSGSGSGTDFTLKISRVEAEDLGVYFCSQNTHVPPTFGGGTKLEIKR = 2.38 OD450 nm
F3.38.7 (antibody, human IgG1, kappa, V domains shown, human-murine chimeric antibody) VH: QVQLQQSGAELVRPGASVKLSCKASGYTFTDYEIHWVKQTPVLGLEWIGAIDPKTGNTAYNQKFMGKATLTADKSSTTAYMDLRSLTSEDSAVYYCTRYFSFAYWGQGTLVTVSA VL: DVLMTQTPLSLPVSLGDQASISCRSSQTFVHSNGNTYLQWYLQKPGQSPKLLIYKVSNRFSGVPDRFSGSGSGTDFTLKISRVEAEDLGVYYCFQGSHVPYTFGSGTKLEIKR = 2.83 OD450 nm

Query string: Give the measured OD450 nm for F2.55.11 (antibody, human IgG1, kappa, V domains shown, human-murine chimeric antibody) VH: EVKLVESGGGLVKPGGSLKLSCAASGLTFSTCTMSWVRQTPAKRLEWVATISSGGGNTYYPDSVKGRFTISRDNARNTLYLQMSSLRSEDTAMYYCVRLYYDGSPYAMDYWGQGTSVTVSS VL: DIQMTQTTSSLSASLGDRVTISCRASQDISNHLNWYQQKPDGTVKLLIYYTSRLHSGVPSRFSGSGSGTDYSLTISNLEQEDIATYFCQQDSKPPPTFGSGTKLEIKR
Result string: 2.51 OD450 nm
